- TARGET_SYSTEM: leukotriene B4 specific receptor on the membrane of human neutrophils (Homo sapiens, UniProt Q15722)
- Sequence (Q15722 whole entry): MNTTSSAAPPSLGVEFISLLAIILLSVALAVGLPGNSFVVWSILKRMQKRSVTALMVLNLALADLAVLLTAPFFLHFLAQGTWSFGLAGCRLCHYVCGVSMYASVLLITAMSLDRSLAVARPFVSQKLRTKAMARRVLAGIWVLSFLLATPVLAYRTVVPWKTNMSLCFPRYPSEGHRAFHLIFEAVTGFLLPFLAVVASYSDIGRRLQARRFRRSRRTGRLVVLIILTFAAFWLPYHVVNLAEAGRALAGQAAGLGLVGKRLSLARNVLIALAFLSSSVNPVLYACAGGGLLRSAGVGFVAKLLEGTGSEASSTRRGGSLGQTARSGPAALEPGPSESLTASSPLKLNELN
- PROCEDURE_SUMMARY: biochemical
- RECORDED_CONDITIONS: 0.1-0.2 nM ^3 H-LTB4, 10 minutes at 4° C., read-out: Inhibition of [^3 H]LTB4 Binding to Human Neutrophils IC50
Counter-ions that a name gives are not always drawn.
QUANTITY_MEASURED: IC50 (nM)

Known results for molecules:
MOLECULE	UNIT_STRING	IC50
CCc1cc(C(C)=O)c(O)cc1OCCCOc1ccc(C(=O)c2cccc(C(=O)O)c2)cc1CCC(=O)O [Example 20, trisodium salt hydrate]	nM	46
CCCc1c(OCCCOc2cc(O)c(C(C)=O)cc2CC)cccc1OCc1ccccc1C(=O)O [Example 17, disodium salt hemihydrate]	nM	127

1 = CCc1cc(C(C)=O)c(O)cc1OCCCOc1ccc2oc3ccccc3c2c1CCC(=O)O [Example 8, disodium salt]
2 = CCc1cc(C(C)=O)c(O)cc1OCCCOc1ccc(-c2ccccc2)cc1CCC(=O)O [Example 11, disodium salt]
3 = CCCc1cc(Oc2ccc(C(=O)O)cc2)ccc1OCCCOc1cc(O)c(C(C)=O)cc1CC [sodium salt hydrate]
4 = CCc1cc(C(C)=O)c(O)cc1OCCCOc1ccc(Oc2ccc(C(=O)O)cc2)cc1 [sodium salt hydrate]
5 = CCCc1c(OCCCOc2cc(O)c(C(C)=O)cc2CC)cccc1OCC(=O)O
Please list the entries, largest IC50 first. // rank by listing labels in the order requested
3, 4, 2, 5, 1
(3: 326 nM, 4: 193 nM, 2: 115 nM, 5: 67 nM, 1: 43 nM)

====

- TARGET_SYSTEM: [^3 H]-LTB4 binding to guinea pig lung membranes (Cavia porcellus, UniProt H0VYV8)
- Sequence (H0VYV8 1-348): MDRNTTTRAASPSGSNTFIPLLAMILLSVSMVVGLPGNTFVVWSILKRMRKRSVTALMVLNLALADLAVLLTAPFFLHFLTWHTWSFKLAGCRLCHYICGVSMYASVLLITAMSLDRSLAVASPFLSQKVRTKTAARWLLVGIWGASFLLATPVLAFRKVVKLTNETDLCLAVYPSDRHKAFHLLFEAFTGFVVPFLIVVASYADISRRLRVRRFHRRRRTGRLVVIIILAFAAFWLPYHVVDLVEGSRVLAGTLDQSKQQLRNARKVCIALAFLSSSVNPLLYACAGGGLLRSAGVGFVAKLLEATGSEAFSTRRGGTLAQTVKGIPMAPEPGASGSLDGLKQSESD
- PROCEDURE_SUMMARY: Inhibition of [^3 H]LTB4 Binding to Guinea Pig Lung Membranes
- RECORDED_CONDITIONS: approximately 140 pM [^3 H]-LTB4, 45 minutes at 30° C., pH 6.5, mean -log Ki, read-out: Inhibition of [^3 H]LTB4 Binding to Guinea Pig Lung Membranes pKi (converted)
Where a name gives a salt, the structure may show the parent alone.
QUANTITY_MEASURED: Ki (nM)

Example molecules with recorded Ki:
MOLECULE	Ki [nM]
CCCc1c(OCCCOc2cc(O)c(C(C)=O)cc2CC)ccc2c1OC(C(=O)O)CC2 (stereo not drawn)	8.13
CCc1cc(C(C)=O)c(O)cc1OCCCOc1ccc2c(=O)c3cc(C(=O)O)ccc3oc2c1CCC(=O)O [Example 15, trisodium salt trihydrate]	0.977
CCc1cc(C(C)=O)c(O)cc1OCCCOc1cccc(Oc2cccc(C(=O)O)c2)c1 [Example 14, disodium salt hemihydrate]	174
CCc1cc(C(C)=O)c(O)cc1OCCCOc1cccc(Oc2ccccc2C(=O)O)c1 [Example 13, disodium salt hemihydrate]	182
CCCc1c(OCCCOc2cc(O)c(C(C)=O)cc2CC)cccc1OCc1ccccc1C(=O)O [Example 17, disodium salt hemihydrate]	170
CCc1cc(C(C)=O)c(O)cc1OCCCOc1ccc2ccc(OCC(=O)O)cc2c1 [Example 16, sodium salt hydrate]	117
CCc1cc(C(C)=O)c(O)cc1OCCCOc1ccc2c(=O)c3cc(C(=O)O)ccc3oc2c1 [Example 7, disodium salt sesquihydrate]	741
CCc1cc(C(C)=O)c(O)cc1OCCCOc1ccc(Oc2ccc(C(=O)O)cc2)cc1 [sodium salt hydrate]	132

I = CCCc1c(OCCCCOc2cc(O)c(C(C)=O)cc2CC)cccc1Oc1ccccc1C(=O)O [Example 18, disodium salt]
II = CCc1cc(C(C)=O)c(O)cc1OCCCOc1ccc(C(=O)c2cccc(C(=O)O)c2)cc1CCC(=O)O [Example 20, trisodium salt hydrate]
Lower value of Ki belongs to which: I or II ? Answer with the label corresponding to your selection.
II
(II: 6.61 nM, I: 53.7 nM)

P = CCCc1cc(Oc2ccc(C(=O)O)cc2)ccc1OCCCOc1cc(O)c(C(C)=O)cc1CC [sodium salt hydrate]
Q = CCCc1c(OCCCOc2cc(O)c(C(C)=O)cc2CC)cccc1OC(C)C(=O)O (stereo not drawn)
R = CCc1cc(C(C)=O)c(O)cc1OCCCOc1ccc(-c2ccccc2)cc1CCC(=O)O [Example 11, disodium salt]
// smallest Ki at index 0, largest at the end Please list each label once, in the requested order.
Q, R, P

I = CCc1cc(C(C)=O)c(O)cc1OCCCOc1ccc2oc3ccccc3c2c1CCC(=O)O [Example 8, disodium salt]
II = CCCc1c(OCCCOc2cc(O)c(C(C)=O)cc2CC)cccc1OC(CC)C(=O)O (stereo not drawn)
Of I and II , whose reported Ki is the larger number? Please reply using the label of the selected record.
II
(II: 13.8 nM, I: 2.04 nM)
